test system: SK-OV-3 ovarian; experiment: NCI tumour cell line growth inhibition, 48 h
readout_name: TGI

The measured TGI associated with "Cc1[nH]nc(C(=O)N/N=C/c2cccs2)c1N=NN(C)C" reads 43.7 µM

The measured TGI associated with "O=C(O)CNS(=O)(=O)c1ccc(NC(=O)c2cccc([N+](=O)[O-])c2)cc1" reads > 100 µM

The measured TGI associated with COc1ccc(N2C(=O)CSC2c2cc(OC)c(OC)c(OC)c2)cc1 (stereo not given) reads 71 µM

The measured TGI associated with "CN(C)/C(=N/C(=O)Nc1ccccc1)SCc1ccccc1" reads > 100 µM

The measured TGI associated with NC(=S)N1N=C(c2ccc3c(c2)CCC3)CC1c1ccccc1 (stereo not given) reads 88.6 µM

----------
system: SN12C renal; assay: NCI tumour cell line growth inhibition, 48 h
readout_name: GI50

GI50 on SN12C renal for "C=C1C(=O)O[C@H]2[C@H](OC(C)=O)[C@@H](C)CCC/C(C)=C/CC[C@]3(CO3)[C@H](O)C[C@@H]12" is 4.26 µM

GI50 on SN12C renal for "CCC[CH2][Ge]([CH2]CCC)([CH2]CCC)[O]C(=O)CCl" is 1.46 µM

GI50 on SN12C renal for "CCNC1=CC(=O)c2ncccc2C1=O" is 1.4 µM

GI50 on SN12C renal for COc1cc(SC)ccc1C(=O)N1CCCC(C)C1 (stereo not drawn) is > 100 µM

GI50 on SN12C renal for "Fc1cc(Nc2ccc3c(OCCCN4CCOCC4)cccc3n2)ccc1Cl" is 4.36 µM

GI50 on SN12C renal for "CCn1c(-c2cc3ccccc3cc2OC(=O)c2ccccc2)n[nH]c1=S" is 35.9 µM

GI50 on SN12C renal for "COc1cc([N+](=O)[O-])c2ncccc2c1O" is 3.06 µM

----------
tested on: NCI-H460 lung; assay: NCI tumour cell line growth inhibition, 48 h
readout_name: TGI

Please review the entries below; each comes with its answer.
compound | TGI
CC1=C(C(=O)OC(C)C)C(c2cccc([N+](=O)[O-])c2)C(C(=O)OC(CO[N+](=O)[O-])CO[N+](=O)[O-])=C(C)N1 (centres undefined) | > 36.7 µM
CCOC(=O)Cn1c(C)nc2nn(Cc3ccccc3)cc2c1=O | > 100 µM
CN(NC(=O)/C(=C/C=C/c1ccccc1)NC(=O)c1ccccc1)C1=C(Cl)C(=O)[N+](c2ccccc2)=CC1 | > 100 µM

The measured TGI associated with C=C(Cl)C(=C)CCC(Cl)C(C)(C)Cl (centres undefined) reads > 100 µM

The measured TGI associated with "COc1cc2c(cc1OCc1ccccc1)NC(=O)[C@@H]1C[C@@H](O)CN1C2=O" reads > 100 µM

----------
tested on: NCI-H23 lung; assay: NCI tumour cell line growth inhibition, 48 h; in the data active = GI50 below about 0.43 µM; inactive = the rest
Log the outcome using a class from True (active), False (inactive)

Known results for compounds:
compound | category
COCCn1cc(-c2csc(-c3c[nH]c4ccc(F)cc34)n2)c2cccnc21 | False
CCCCCCCCCC[C@@H](O)[C@H]1CC[C@@H]([C@H]2CC[C@H]([C@H](O)CCCCCCCCCC[C@@H]3CC(CC(C)=O)C(=O)O3)O2)O1 (stereo not given in full) | False

Which result was noted for this compound in the test: "CCN(CC)c1ccc(/C=N\NC(=O)c2cccc(Nc3ccnc(C(F)(F)F)c3)c2)c(O)c1"
False

Which result was noted for this compound in the test: "Cc1cc(I)cc(CN(C)CCCCN2CCCC2)c1O"
False

Which result was noted for this compound in the test: "CCc1ccc(/C=C2/SC(=S)NC2=O)cc1"
False

Which result was noted for this compound in the test: "C[C@@H]1CC[C@H]2C(CN3CCN(CC4=C(C(F)(F)F)O[C@@H]5O[C@@]6(C)CC[C@H]7[C@H](C)CC[C@@H]4[C@@]57OO6)CC3)=C(C(F)(F)F)O[C@@H]3O[C@@]4(C)CC[C@@H]1[C@]32OO4"
False

Which result was noted for this compound in the test: Nc1ncnc2c(C3OC(CO)C(O)C3O)c[nH]c12 (stereo not given)
True

Which result was noted for this compound in the test: "CC(C)=CCC[C@](C)(O)[C@H]1CC[C@]2(C)[C@@H]1CC[C@@H]1[C@@]3(C)CC[C@H](OC(=O)CCC(=O)O)C(C)(C)[C@@H]3CC[C@]12C"
False

Which result was noted for this compound in the test: "CCOc1ccc(N2C(N)=NC(N)=NC2(C)C)cc1"
False

Which result was noted for this compound in the test: "Cn1cc(/C=C2\C(=O)Nc3cccnc32)c2ccccc21"
False

----------
The following molecules are listed with their measured TGI values.
tested on: SF-295 CNS; assay: NCI tumour cell line growth inhibition, 48 h

Please review the entries below; each comes with its answer.
molecule | TGI
O=C(O)c1cc2c(cc1CC(Cc1ccccc1)C(=O)O)CCC2 (stereo unspecified) | > 100 µM
Fc1ccccc1C1SCC2=Nc3ccccc3CN21 (stereo unspecified) | > 100 µM

Next molecule, TGI to be filled in.
The measured TGI associated with "Cc1cc(C(=O)NCCN(C)C)c2nc3ccccc3nc2c1" reads > 27.8 µM

----------
system: SN12C renal; test: NCI tumour cell line growth inhibition, 48 h
readout_name: TGI

Please review the entries below; each comes with its answer.
molecule | TGI
CC(CN(C)C)C(O)(c1ccccc1)c1ccccc1 (stereo not drawn) | > 100 µM
Cc1cc(C(=O)NCCN(C)C)c2nc3ccccc3nc2c1 | 43.7 µM
COC(=O)C[C@H]1[C@]2(C)C3=C(C)[C@H](c4ccoc4)CC3O[C@@H]2[C@@H]2OC(=O)[C@]3(C)CCC(=O)[C@@]1(C)[C@@H]23 (stereo partly drawn) | > 100 µM
COc1cc(C(N)=O)c(OC)c(OC)c1OC | > 100 µM

Next molecule, TGI to be filled in.
The measured TGI associated with C1CCN2CC34CC(CC5CCCN(C6CCCC3N6)C54)C2C1 (stereo not drawn) reads > 100 µM

----------
tested on: LOX IMVI melanoma; assay: NCI tumour cell line growth inhibition, 48 h; in the data active = GI50 below about 0.43 µM; inactive = the rest
Log the outcome using a class from T for active, F for inactive

molecule | category
C[C@H]1CC(=O)[C@@]2(O)C#C/C=C\C#C[C@@H]3Nc4c(cc(O)c5c4C(=O)c4ccccc4C5=O)[C@]24O[C@]314 | T
COc1cc(Nc2ncc(-c3ccccc3)o2)cc(OC)c1OC | F
N#CC(C#N)=C/C=C/c1cccc([N+](=O)[O-])c1 | F

Which result was noted for this molecule in the test: "C=C1C(=O)O[C@H]2[C@H](OC(C)=O)[C@@H](C)CCC/C(C)=C/CC[C@]3(CO3)[C@H](O)C[C@@H]12"
F

Which result was noted for this molecule in the test: COc1ccccc1OCC(O)CO (configuration not stated)
F

Which result was noted for this molecule in the test: "CN(C)c1ccc(/C=N/Nc2ccc(-c3nc4ccccc4[nH]3)cc2)cc1"
F

----------
The following compounds are listed with their measured TGI values.
system: HL-60(TB) leukemia; assay: NCI tumour cell line growth inhibition, 48 h

Please review the entries below; each comes with its answer.
compound | result
c1csc(-c2csc(-c3cccs3)c2)c1 | > 100 µM
Fc1ccc(-c2c(-c3ccncc3)n(CCN3CCOCC3)c3cccnc23)cc1 | > 25 µM
C1CN(C23OC4(N5CCOCC5)C5C6CC(C7C6C4C72)C53)CCO1 (stereo unspecified) | > 100 µM
CC(=O)N/N=C1\NN(C(C)=O)C2(S1)C(=O)Nc1ccccc12 (stereo unspecified) | > 100 µM
CCOC(=O)C1C2C1C1C(C(=O)OCC)C21 (stereo unspecified) | > 100 µM
O=C(O)c1oc2ccc([N+](=O)[O-])c3c2c1CCC3 | > 100 µM

The measured TGI associated with Fc1ccccc1C1SCC2=Nc3ccccc3CN21 (stereo unspecified) reads > 100 µM

The measured TGI associated with "COc1ccc(-c2nc(N)nc(-c3cc(C)ccc3O)c2Cl)cc1" reads > 100 µM

----------
system: TK-10 renal; assay: NCI tumour cell line growth inhibition, 48 h
The following compounds are listed with their measured GI50 values.

The measured GI50 associated with "Nc1ccccc1C#Cc1ccccc1C#CCCCCO" reads 27.5 µM

The measured GI50 associated with "CC(C)=CCC[C@](C)(O)[C@H]1CC[C@]2(C)[C@@H]1CC[C@@H]1[C@@]3(C)CC[C@H](OC(=O)CCC(=O)O)C(C)(C)[C@@H]3CC[C@]12C" reads 87.8 µM

The measured GI50 associated with "O=c1c2c(=NCCCN3CCCC3)cc3c(=O)n(CCCN4CCCC4)c(=O)c4c(NCCCN5CCCC5)cc(c(O)n1CCCN1CCCC1)c2c4-3" reads 2.22 µM

The measured GI50 associated with "COCCOC(=O)CCn1cc(F)c(=O)[nH]c1=O" reads 6.77 µg/mL

The measured GI50 associated with "COc1cc(C(=O)c2c(-c3ccccc3)oc3ccccc23)cc(OC)c1O" reads 20.5 µM

The measured GI50 associated with "Cc1cc(I)cc(CN(C)CCCCN2CCCC2)c1O" reads 20.8 µM

The measured GI50 associated with "Cc1ccc(Nc2ccnc(Nc3cccc(C(N)=O)c3)n2)cc1O" reads 6.39 µM

The measured GI50 associated with "C[C@H]1CC(=O)[C@@]2(O)C#C/C=C\C#C[C@@H]3Nc4c(cc(O)c5c4C(=O)c4ccccc4C5=O)[C@]24O[C@]314" reads 0.492 µM

The measured GI50 associated with "CCNC1=CC(=O)c2ncccc2C1=O" reads 15.6 µM

The measured GI50 associated with "CCc1ccc(/C=C2/SC(=S)NC2=O)cc1" reads 23.4 µM
